meta.source: the supplement of paper PMC7877785

assay: self-splicing fitness, log relative to wild type (ln ratio); higher = more splicing; Tetrahymena group I intron in knt gene, E. coli kanamycin selection, DiMSum; sequences stand for … in CUCUCU…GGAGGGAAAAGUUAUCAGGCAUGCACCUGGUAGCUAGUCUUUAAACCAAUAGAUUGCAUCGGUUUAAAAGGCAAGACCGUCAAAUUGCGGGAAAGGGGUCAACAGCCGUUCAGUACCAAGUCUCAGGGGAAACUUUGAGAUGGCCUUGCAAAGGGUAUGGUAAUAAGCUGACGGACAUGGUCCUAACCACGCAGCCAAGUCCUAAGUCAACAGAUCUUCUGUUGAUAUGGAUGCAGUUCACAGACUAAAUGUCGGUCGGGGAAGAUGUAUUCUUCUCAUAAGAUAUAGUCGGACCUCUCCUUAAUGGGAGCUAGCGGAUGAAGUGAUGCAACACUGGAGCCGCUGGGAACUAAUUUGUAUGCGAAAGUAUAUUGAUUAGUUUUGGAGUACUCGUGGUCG; conditions: 30 °C;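 note: selection with 25 µg/mL kanamycin versus none on LB agar overnight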
Could you please report measured self-splicing fitness (ln) for the items listed next?
Could you respond with only the numeric value?

Query "GACCAGCAAUAUUACGCGCA" yields self-splicing fitness (ln) of -0.663

Query "UCAGAGCAAUAUUACGCCAA" yields self-splicing fitness (ln) of -2.84

Query "AGGAAGCAAUAUUACGAUCA" yields self-splicing fitness (ln) of -0.344

Query "UGGAAGCAAUAUUACGGAGA" yields self-splicing fitness (ln) of -2.7

Query "UCUGAGCAAUAUUACGGGAG" yields self-splicing fitness (ln) of -4.4

Query "CUACAGCAAUAUUACGCACA" yields self-splicing fitness (ln) of -3.12

Query "UUCUAGCAAUAUUACGCUCG" yields self-splicing fitness (ln) of -2.13

Query "CUAUAGCAAUAUUACGUUCG" yields self-splicing fitness (ln) of -0.385
